Details: in DMAc, 312.15 K
Readout: solubility (mole fraction)
I'd appreciate a reply containing only the number, no unit.

Request: Note solubility (mole fraction) for the compound shown: O=C(O)c1ccccc1C(=O)O
Result: 0.258

---

Conditions: in DMSO, 304.25 K
Readout: solubility (mole fraction)
I'd appreciate a reply containing only the number, no unit.

Request: Note solubility (mole fraction) for the molecule shown: O=C(O)c1ccccc1C(=O)O
Result: 0.344

---

Conditions: in propionic acid, 335.15 K
Readout: solubility (mole fraction)
I'd appreciate a reply containing only the number, no unit.

Request: Note solubility (mole fraction) for the compound shown: O=C(O)c1ccccc1C(=O)O
Result: 0.00876
